- Assayed target: Grb2 SH2 (UniProt P62993)
- Sequence (P62993 whole entry, looked up): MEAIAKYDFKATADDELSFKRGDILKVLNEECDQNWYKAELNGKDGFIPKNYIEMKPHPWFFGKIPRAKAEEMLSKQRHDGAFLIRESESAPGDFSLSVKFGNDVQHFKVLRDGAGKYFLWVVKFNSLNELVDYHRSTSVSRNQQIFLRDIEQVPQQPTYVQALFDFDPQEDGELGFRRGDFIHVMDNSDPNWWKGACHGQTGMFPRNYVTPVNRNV
- Test protocol: SH2 binding enrichment of the phosphorylated peptide, bacterial display (enrichment ratio); higher = better substrate or ligand; peptides without Tyr show the background
Measured endpoint: SH2 binding enrichment

Example entries begin here.
Sequence content: ENGPFYTSFPP [GDAP2_Y488_YF]
Measured endpoint: SH2 binding enrichment
Value reported: 0.813
//
Sequence content: NTGDDYDLYGG [PTPN11_Y63_Y62D]
Measured endpoint: SH2 binding enrichment
Value reported: 0.804
//
Sequence content: TEQMAYCPIQC [SHC4_Y403]
Measured endpoint: SH2 binding enrichment
Value reported: 0.793

Lab note: each sequence below needs its SH2 binding enrichment filled in.
1. TFAVSYLPDMS [FLNC_Y1602_T1599A_YF]
2. AAGGRYDGLLG [HARS2_Y364_V368L]

# output
0.905
0.785

Each sequence below has a recorded value; state its SH2 binding enrichment.
1. LHSEAYLKFIE [PBRM1_Y1610_YF]
2. RRDRDYTNLPS [CSF1R_Y923_E920D]
3. QSSEGYGLGDR [KIAA1210_Y564]
4. KAPPTYDTVLQ [CYP3A4_Y347]
5. AAVNGYAFGGG [ECHS1_Y137]
6. YLTSSYINIST [IL23R_Y178]

# output
1: 0.887; 2: 1.87; 3: 0.695; 4: 0.887; 5: 0.75; 6: 11.7

Record SH2 binding enrichment for all entries; do not skip any.
1. EPNSRYTCKLE [USH2A_Y3745_Y3747C]
2. SLESAYPEGSQ [TTF1_Y357]
3. STKPQYQPGEN [SRC_Y530_E527K]
4. PLDGEYFTPQI [TP53_Y327_L330P]
5. ETALHYIHDGI [GATD3A_Y250]
6. KLADMYGGGKD [CDH1_Y876_E880K]
7. SVGGLYRDMGA [CBX8_Y321_G317V]

# output
[1.06, 0.861, 0.833, 0.816, 0.786, 0.779, 0.72]

List the reported SH2 binding enrichment of each sequence below.
1. TVQVAYYTVMM [SPATA17_Y83_M86V]
2. SVVVPYESPEV [TP53_Y220_P222S]
3. RQRTAYFSLNT [CDH1_Y68_D72N]
4. RPSELYFSKIS [SMG1_Y2253_G2258S_YF]

# output
1.06
0.972
0.901
0.741

----------
Please provide measured phosphorylation enrichment for the entries that follow.
- Assayed target: Hck (UniProt P08631)
- Sequence (P08631 whole entry, looked up): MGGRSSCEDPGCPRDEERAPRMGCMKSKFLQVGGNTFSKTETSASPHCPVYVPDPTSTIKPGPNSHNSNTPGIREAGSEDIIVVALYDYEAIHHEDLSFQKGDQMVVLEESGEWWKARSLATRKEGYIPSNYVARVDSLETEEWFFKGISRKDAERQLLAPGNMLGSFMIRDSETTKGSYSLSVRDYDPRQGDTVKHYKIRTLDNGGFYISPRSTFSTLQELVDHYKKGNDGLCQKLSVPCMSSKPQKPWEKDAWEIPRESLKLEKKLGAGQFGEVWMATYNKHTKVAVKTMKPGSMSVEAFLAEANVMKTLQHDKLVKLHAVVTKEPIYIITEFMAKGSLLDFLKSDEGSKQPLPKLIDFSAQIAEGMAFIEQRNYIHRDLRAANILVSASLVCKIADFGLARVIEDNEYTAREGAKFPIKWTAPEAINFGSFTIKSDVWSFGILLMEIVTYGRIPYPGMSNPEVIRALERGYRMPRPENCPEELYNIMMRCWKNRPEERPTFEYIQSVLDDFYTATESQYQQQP
- Test protocol: phosphorylation enrichment, bacterial display (enrichment ratio); higher = better substrate or ligand; peptides without Tyr show the background
Answers are plain numbers.

As a guide, the following entries are already answered.
Sequence content: PEADKYCLTYA [FGG_Y300_R301C]
Value reported: 0.601

Sequence content: IGMLIYFARKA [VCAM1_Y718_I716L]
Value reported: 0.536

Sequence content: SRDDYYETIAM [NPY1R_Y347_D346Y]
Value reported: 1.18

Sequence content: KPGLIYNKVNP [SPRED3_Y72_V71I]
Value reported: 2.25

Can you give me phosphorylation enrichment for all of these, one by one?
1. CTTIHHNYMCN [TP53_Y234_Y234H]
2. IITDYYVDMKF [MPP4_Y567_V562I]
3. YRAVKYLQMVG [AVPR2_Y117_C112Y]
4. PLRPDYQEPSR [DDR2_Y481]
5. FGCTFYNQAIM [MCCC2_Y196_R193C]
6. SSQTVYQRVEG [TFR2_Y23]

# output
1: 0.455; 2: 1.17; 3: 0.584; 4: 0.57; 5: 0.597; 6: 0.77

Parameter requested: phosphorylation enrichment. Apply to each item below.
1. IFHLSYHHNCE [PDE6B_Y227_L228H_YF]
2. AGQERYRAITS [RAB11B_Y73]
3. SILAVYSKDIY [PANK2_Y400_N404I]
4. FQASFYRRGDR [LTK_Y677_R673Q_YF]

# output
[0.478, 0.527, 2.48, 0.501]

# input # query: phosphorylation enrichment of entry HTKKNYGNSSV [HDX_Y197_A193T]
# output 0.462
